Target: Tubulin (Bos taurus) (UniProt Q6B856+Q862L2+Q862F3)
Experiment: Inhibition of tubulin polymerization in bovine brain at 3.33 uM
Listing: inhibition of selected molecules
Quick reminder: number only, in %, skip the unit.

See these solved cases before continuing.
Record `COc1cc(Nc2ncccc2-c2nnc(Nc3ccc4c(c3)OCCO4)n2C)cc(OC)c1` / Tubulin (Bos taurus) (UniProt Q6B856+Q862L2+Q862F3), inhibition recorded as 64

Tested system Tubulin (Bos taurus) (UniProt Q6B856+Q862L2+Q862F3); inhibition recorded for `Fc1cc(F)cc(Oc2ncccc2-c2n[nH]c(Nc3ccc4c(c3)OCO4)n2)c1` was 97

Next:
Reported Tubulin (Bos taurus) (UniProt Q6B856+Q862L2+Q862F3) inhibition for item `c1ccc(Oc2ncccc2-c2nc(Nc3ccc4c(c3)OCO4)n[nH]2)nc1` was 43

Result for `COc1cc(OC)cc(Oc2ncccc2-c2n[nH]c(Nc3cccc(O)c3)n2)c1` , tested on Tubulin (Bos taurus) (UniProt Q6B856+Q862L2+Q862F3), inhibition: 83

`COc1cc(OC)cc(Oc2ncccc2-c2n[nH]c(Nc3cccnc3)n2)c1` on Tubulin (Bos taurus) (UniProt Q6B856+Q862L2+Q862F3) gives inhibition = 49

Value (inhibition, Tubulin (Bos taurus) (UniProt Q6B856+Q862L2+Q862F3)) for record `Fc1cccc(Oc2ncccc2-c2n[nH]c(Nc3ccc4c(c3)OCO4)n2)c1` = 43

Record `COc1cc(Oc2ncccc2-c2n[nH]c(Nc3ccc4c(c3)OCO4)n2)cc(OC)c1OC` / Tubulin (Bos taurus) (UniProt Q6B856+Q862L2+Q862F3), inhibition recorded as 89

###

This section presents compounds with their documented inhibition values.
Target: Tubulin (Bos taurus) (UniProt Q6B856+Q862L2+Q862F3)
Assay: Inhibition of tubulin polymerization in bovine brain at 3.33 uM
Give just the numeric value; % need not be written.

I looked up `COc1cc(OC)cc(Oc2ncccc2-c2n[nH]c(Nc3cc(F)cc(F)c3)n2)c1` and its inhibition for Tubulin (Bos taurus) (UniProt Q6B856+Q862L2+Q862F3) was 51

Summary line: `COc1cc(OC)cc(Oc2ncccc2-c2n[nH]c(NCc3ccc4c(c3)OCO4)n2)c1` , Tubulin (Bos taurus) (UniProt Q6B856+Q862L2+Q862F3), reported inhibition = 90

Record for `Cc1cc(C)cc(Oc2ncccc2-c2n[nH]c(Nc3ccc4c(c3)OCO4)n2)c1` under target or system Tubulin (Bos taurus) (UniProt Q6B856+Q862L2+Q862F3): inhibition reported as 52

Fill in: Tubulin (Bos taurus) (UniProt Q6B856+Q862L2+Q862F3) inhibition for `COc1cc(OC)cc(Oc2ncccc2-c2nc(N(C)c3cccc(OC)c3)n[nH]2)c1` = 5

Please examine the following record next.
Tested on Tubulin (Bos taurus) (UniProt Q6B856+Q862L2+Q862F3), the item `COc1cc(OC)cc(Oc2ncccc2-c2n[nH]c(Nc3ccc(N(C)C)cc3)n2)c1` showed inhibition equal to 76

###

Molecular target: Tubulin (Bos taurus) (UniProt Q6B856+Q862L2+Q862F3)
Settings: at 10 µM
Description: Inhibition of tubulin polymerization in bovine brain at 10 uM
assay.endpoint: inhibition (%)
The reply should be a number in %, with the unit left off.

Briefly, inhibition measured for `COc1cc(OC)cc(Oc2ncccc2-c2n[nH]c(Nc3ccc(N(C)C)cc3)n2)c1` : 98

The recorded inhibition for entry `COc1cccc(Nc2n[nH]c(-c3cccnc3Nc3cc(F)cc(F)c3)n2)c1` equals 0

inhibition for `COc1cc(Nc2ccncc2-c2n[nH]c(Nc3ccc4c(c3)OCCO4)n2)cc(OC)c1` is 100

`c1cnc(NCc2ccncc2)c(-c2n[nH]c(Nc3ccc4c(c3)OCO4)n2)c1` has a reported inhibition of 84

# inhibition (compound: `COc1cccc(Nc2n[nH]c(-c3cccnc3Nc3ccccc3)n2)c1` ) is 4

// `COc1cccc(Nc2n[nH]c(-c3cccnc3Oc3cc(OC)cc(OC)c3)n2)c1` : inhibition value = 100

Others:
inhibition reported for this compound `COc1cc(Nc2ncccc2-c2nc(Nc3cc(OC)ccc3OC)n[nH]2)cc(OC)c1` : 33

Entry under test: `COc1cc(OC)cc(Oc2ncccc2-c2n[nH]c(Nc3ccc4c(c3)OCCO4)n2)c1` . Its inhibition was 100

Notebook: `COc1cc(Nc2n[nH]c(-c3cccnc3Nc3cc(OC)cc(OC)c3)n2)cc(OC)c1` , inhibition read as 45

Lab book: inhibition of `COc1cc(Nc2ncccc2-c2nc(Nc3ccc(OC)cc3OC)n[nH]2)cc(OC)c1` noted as 47

Recorded result, `COc1ccc(CNc2n[nH]c(-c3cccnc3Nc3cc(OC)cc(OC)c3)n2)cc1` , inhibition: 88

inhibition recorded for this compound, `COc1cccc(CNc2n[nH]c(-c3cccnc3Oc3cc(OC)cc(OC)c3)n2)c1` , is 100

So, `COc1cc(Nc2nccnc2-c2n[nH]c(Nc3ccc4c(c3)OCO4)n2)cc(OC)c1` ? Its inhibition was 89

The recorded inhibition for entry `COc1ccc(Nc2n[nH]c(-c3cccnc3Nc3cc(OC)cc(OC)c3)n2)cc1` equals 73

What the record says about `COc1cc(OC)cc(Oc2ncccc2-c2n[nH]c(N(C)c3ccncc3)n2)c1` : inhibition is 68

The compound `Fc1cc(F)cc(Nc2ncccc2-c2n[nH]c(Nc3ccc4c(c3)OCO4)n2)c1` showed inhibition equal to 28

The value of inhibition measured for the compound `COc1cccc(Cc2n[nH]c(-c3cccnc3Nc3cc(OC)cc(OC)c3)n2)c1` turned out to be 9

Value of inhibition reported for the compound `COc1cc(Nc2ncccc2-c2n[nH]c(Nc3ccccc3)n2)cc(OC)c1` is 5

Recorded inhibition (compound `COc1cc(OC)cc(Oc2ncccc2-c2n[nH]c(Nc3ccc4c(c3)OCO4)n2)c1` ): 98

Field inhibition (entry `COc1cc(OC)cc(Oc2ncccc2-c2n[nH]c(Nc3cc(F)cc(F)c3)n2)c1` ) reads 87

###

Property: inhibition at 0.1 µM; scope: individual compounds
Test system: A-431
Assay: Cell cycle arrest in A431 cells by accumulation at G2/M phase cell at 0.1uM
Format: functional
Settings: Homo sapiens
Please give a number only; it is taken to be in %.

Consider the reported inhibition at 0.1 µM for these compounds:
Tested on A-431: `COc1cc(OC)cc(Oc2ccccc2-c2n[nH]c(Nc3ccc4c(c3)OCCO4)n2)c1` . Observed inhibition at 0.1 µM: 82

Considering `COc1cc(OC)cc(Oc2ncccc2-c2n[nH]c(Nc3ccc4c(c3)OCO4)n2)c1` , its inhibition at 0.1 µM with A-431 was recorded as 83

Sample `COc1cc(OC)cc(Oc2ncccc2-c2n[nH]c(Nc3cccnc3)n2)c1` , system: A-431. Its inhibition at 0.1 µM is 61

Query `COc1ccc(Nc2n[nH]c(-c3cccnc3Nc3cc(OC)cc(OC)c3)n2)cc1` on A-431; inhibition at 0.1 µM returned: 68

Shifting focus to the compound that follows.
Field inhibition at 0.1 µM (A-431), entry `COc1cc(OC)cc(Oc2ncccc2-c2n[nH]c(Nc3ccc4c(c3)OCCO4)n2)c1` : 89

###

Biological target: Tubulin (Bos taurus) (UniProt Q6B856+Q862L2+Q862F3)
Test: Inhibition of tubulin polymerization in bovine brain at 3.33 uM
Returns one of True or False; True when inhibition is >= 80%.

Observe how each entry below is paired with its result.
Task: Does the reported inhibition for `COc1cc(OC)cc(Oc2ncncc2-c2n[nH]c(Nc3ccc4c(c3)OCCO4)n2)c1` fall at or above the 80% mark?
Result: False

Task: Identify whether the reported inhibition of the following compound is 80% or greater: `COc1cc(OC)cc(Oc2ccccc2-c2n[nH]c(Nc3ccc4c(c3)OCCO4)n2)c1`
Result: False

Task: State whether the measured inhibition reaches 80%, counting equality as reaching it, for `CN(C)c1cccc(Oc2ncccc2-c2n[nH]c(Nc3ccc4c(c3)OCO4)n2)c1`
Result: False

Task: Exam item: decide whether the reported inhibition for `COc1cc(OC)cc(Oc2ncccc2-c2n[nH]c(Nc3ccc4c(c3)OCO4)n2)c1` is at least 80%.
Result: True

Task: Confirm if inhibition reported for the compound `COc1cc(OC)cc(Oc2ncccc2-c2nnc(Nc3ccc4c(c3)OCCO4)n2C)c1` is 80% or above.
Result: False

Task: Please check the record `COc1cccc(CN(C)c2n[nH]c(-c3cccnc3Oc3cc(OC)cc(OC)c3)n2)c1` and state if its inhibition is at or above 80%.
Result: False

---
Task: Does the compound `COc1cc(OC)cc(Oc2ncccc2-c2n[nH]c(Nc3ccc(C#N)cc3)n2)c1` have recorded inhibition that is 80% or more?
Result: False

Task: Exam item: decide whether the reported inhibition for `COc1cc(OC)cc(Oc2cnccc2-c2n[nH]c(Nc3ccc4c(c3)OCCO4)n2)c1` is at least 80%.
Result: False

Task: Decide: is the reported value of inhibition for `COc1cc(OC)cc(Oc2ccncc2-c2n[nH]c(Nc3ccc4c(c3)OCCO4)n2)c1` equal to or greater than 80%?
Result: True

Task: inhibition >= 80% for `COc1cccc(Nc2n[nH]c(-c3cccnc3Oc3cc(OC)cc(OC)c3)n2)c1` ?
Result: True

Task: Exam item: decide whether the reported inhibition for `COc1cc(Nc2n[nH]c(-c3cccnc3Oc3cc(OC)cc(OC)c3)n2)cc(OC)c1` is at least 80%.
Result: False

Task: Kindly determine if inhibition recorded for `COc1cc(OC)cc(Oc2ncccc2-c2n[nH]c(Nc3ccc4c(c3)OCCO4)n2)c1` is above or exactly 80%.
Result: True

Task: Item `COc1ccc(C(=O)Nc2n[nH]c(-c3cccnc3Oc3cc(OC)cc(OC)c3)n2)cc1` with inhibition of 80% or above?
Result: False
